Biological target: rat cerebellar nitric oxide synthase (NOS) (Rattus norvegicus, UniProt P29476)
Construct: from tissue
Assay: inhibition of rat cerebellar nitric oxide synthase (NOS)
Format: biochemical
Settings: rat cerebella; read-out: IC50 NOS
Experimental: Nitric oxide synthase (NOS) activity was determined in vitro by the method of Dwyer et al., Biochem. Biophys. Res. Commun. 1991, 176, 1136-1141. Mice (male, LACA, 28-32 g) were killed by cervical dislocation. […] [^3 H]-Citrulline was quantitated by liquid scintillation spectroscopy of duplicate 1 ml aliquots of the flow-through.
Listed below: IC50 values for each entry.
State just the number; it will be interpreted in µM.

[
  {
    "given-smiles": "O=[N+]([O-])c1ccc2[nH]nc(Cl)c2c1",
    "system-under-test": "rat cerebellar nitric oxide synthase (NOS) (Rattus norvegicus, UniProt P29476)",
    "IC50 (µM)": 177
  },
  {
    "given-smiles": "Clc1n[nH]c2ccccc12",
    "system-under-test": "rat cerebellar nitric oxide synthase (NOS) (Rattus norvegicus, UniProt P29476)",
    "IC50 (µM)": 100
  },
  {
    "given-smiles": "O=[N+]([O-])c1ccc2cn[nH]c2c1",
    "system-under-test": "rat cerebellar nitric oxide synthase (NOS) (Rattus norvegicus, UniProt P29476)",
    "IC50 (µM)": 32
  }
]

Look up IC50 for this compound: `O=[N+]([O-])c1ccc2[nH]ncc2c1`
56

###

target: rat cerebellar nitric oxide synthase (NOS) (Rattus norvegicus); construct: from tissue; assay: inhibition of rat cerebellar nitric oxide synthase (NOS); format: biochemical
experimental-readout: IC50
Please format your answer as a value with the unit trailing.

What measured IC50 is associated with `c1ccc2[nH]ncc2c1` on rat cerebellar nitric oxide synthase (NOS) (Rattus norvegicus)?
232 µM

###

Listed below: IC50 values for each entry.
molecular target: mouse cerebellar NOS (Mus musculus, UniProt Q9Z0J4); construct: Cerebella were removed, homogenized; from tissue; host or cells: cerebellum of male LACA mice, crude homogenate; assay: inhibition of mouse cerebellar nitric oxide synthase (NOS) activity in vitro; type: biochemical; conditions: mouse cerebella homogenate, 15 minutes, 37° C., mean ± s.e. mean, n=6
Sequence (Q9Z0J4 whole entry): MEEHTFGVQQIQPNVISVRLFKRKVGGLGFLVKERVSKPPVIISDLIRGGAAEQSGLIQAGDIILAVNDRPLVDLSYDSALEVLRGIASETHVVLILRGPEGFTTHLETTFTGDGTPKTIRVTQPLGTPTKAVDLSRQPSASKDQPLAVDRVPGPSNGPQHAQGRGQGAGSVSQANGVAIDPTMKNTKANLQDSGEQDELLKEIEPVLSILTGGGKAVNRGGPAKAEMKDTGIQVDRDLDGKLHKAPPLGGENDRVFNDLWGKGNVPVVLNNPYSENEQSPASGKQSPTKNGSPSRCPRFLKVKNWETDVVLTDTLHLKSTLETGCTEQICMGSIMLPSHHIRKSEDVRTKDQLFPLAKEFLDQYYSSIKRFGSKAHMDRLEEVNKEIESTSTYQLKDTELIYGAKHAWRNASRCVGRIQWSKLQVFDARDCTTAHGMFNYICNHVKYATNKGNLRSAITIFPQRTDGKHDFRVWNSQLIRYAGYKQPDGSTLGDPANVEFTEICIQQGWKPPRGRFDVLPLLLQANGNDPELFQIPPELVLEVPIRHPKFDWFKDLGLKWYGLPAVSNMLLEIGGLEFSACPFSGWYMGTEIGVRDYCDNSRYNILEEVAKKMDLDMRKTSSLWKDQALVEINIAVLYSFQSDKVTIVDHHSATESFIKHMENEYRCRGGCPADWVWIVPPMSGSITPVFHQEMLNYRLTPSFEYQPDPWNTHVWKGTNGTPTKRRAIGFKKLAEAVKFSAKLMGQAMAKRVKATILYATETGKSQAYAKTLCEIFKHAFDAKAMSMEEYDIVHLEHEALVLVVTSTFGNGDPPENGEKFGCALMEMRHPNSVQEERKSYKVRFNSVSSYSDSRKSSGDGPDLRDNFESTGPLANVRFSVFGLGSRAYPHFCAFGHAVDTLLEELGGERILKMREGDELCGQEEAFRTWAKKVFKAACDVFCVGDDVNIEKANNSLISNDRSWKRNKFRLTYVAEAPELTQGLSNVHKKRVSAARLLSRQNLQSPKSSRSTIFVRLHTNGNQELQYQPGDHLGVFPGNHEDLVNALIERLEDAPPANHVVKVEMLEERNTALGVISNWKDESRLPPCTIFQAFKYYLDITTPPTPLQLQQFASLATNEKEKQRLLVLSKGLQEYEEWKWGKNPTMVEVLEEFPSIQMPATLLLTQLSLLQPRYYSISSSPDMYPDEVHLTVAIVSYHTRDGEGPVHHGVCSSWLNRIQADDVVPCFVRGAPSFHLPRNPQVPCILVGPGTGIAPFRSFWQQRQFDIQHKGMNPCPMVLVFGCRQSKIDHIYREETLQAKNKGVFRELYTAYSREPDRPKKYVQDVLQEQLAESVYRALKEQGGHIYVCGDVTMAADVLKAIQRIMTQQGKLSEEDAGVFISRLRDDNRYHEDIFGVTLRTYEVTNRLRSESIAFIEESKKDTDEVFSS
State just the number; it will be interpreted in nM.

Check out these entries, answers already filled in.
[
  {
    "molecule": "O=[N+]([O-])c1cccc2cn[nH]c12",
    "system-under-test": "mouse cerebellar NOS (Mus musculus, UniProt Q9Z0J4)",
    "IC50, nM": 470
  },
  {
    "molecule": "COC(=O)[C@@H](N)CCCNC(=N)N[N+](=O)[O-] [L-NAME, L-N^G -nitroarginine methyl ester, reference compound]",
    "system-under-test": "mouse cerebellar NOS (Mus musculus, UniProt Q9Z0J4)",
    "IC50, nM": 870
  }
]

Let us move to another entry and its IC50.
Look up IC50 for this molecule: CNC(=N)NCCC[C@H](N)C(=O)O [L-NMMA, L-N^G -monomethyl arginine, reference compound]
2370
